# Study System: A2A (Homo sapiens)
# Sequence (P29274 whole entry): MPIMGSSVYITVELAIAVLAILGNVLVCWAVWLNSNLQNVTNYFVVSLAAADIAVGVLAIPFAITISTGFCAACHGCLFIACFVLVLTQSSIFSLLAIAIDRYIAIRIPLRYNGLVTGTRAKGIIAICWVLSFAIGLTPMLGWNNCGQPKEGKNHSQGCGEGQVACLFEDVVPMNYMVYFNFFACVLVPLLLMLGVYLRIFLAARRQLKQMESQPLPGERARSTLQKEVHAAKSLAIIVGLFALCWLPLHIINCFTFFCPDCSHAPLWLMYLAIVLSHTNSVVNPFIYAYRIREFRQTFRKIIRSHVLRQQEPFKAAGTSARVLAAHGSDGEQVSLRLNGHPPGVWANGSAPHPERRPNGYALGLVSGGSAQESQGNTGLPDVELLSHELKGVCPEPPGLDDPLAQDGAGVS
# Test Details: GPCR panel, cAMP or calcium FLIPR assays
# Format: cell-based
# Assay Conditions: agonist
Reported Endpoint: EC50

Supply measured EC50 of CC1CCCN1C(=O)c1nc(C(=O)NCC(C)(C)O)sc1-c1ccc(C(O)(C(F)(F)F)C(F)(F)F)c(Cl)c1Cl (stereo not shown) in your reply.
> 12.5 µM

---

# Study System: AR (Homo sapiens)
# Sequence (P10275 whole entry, the tested form may be a part): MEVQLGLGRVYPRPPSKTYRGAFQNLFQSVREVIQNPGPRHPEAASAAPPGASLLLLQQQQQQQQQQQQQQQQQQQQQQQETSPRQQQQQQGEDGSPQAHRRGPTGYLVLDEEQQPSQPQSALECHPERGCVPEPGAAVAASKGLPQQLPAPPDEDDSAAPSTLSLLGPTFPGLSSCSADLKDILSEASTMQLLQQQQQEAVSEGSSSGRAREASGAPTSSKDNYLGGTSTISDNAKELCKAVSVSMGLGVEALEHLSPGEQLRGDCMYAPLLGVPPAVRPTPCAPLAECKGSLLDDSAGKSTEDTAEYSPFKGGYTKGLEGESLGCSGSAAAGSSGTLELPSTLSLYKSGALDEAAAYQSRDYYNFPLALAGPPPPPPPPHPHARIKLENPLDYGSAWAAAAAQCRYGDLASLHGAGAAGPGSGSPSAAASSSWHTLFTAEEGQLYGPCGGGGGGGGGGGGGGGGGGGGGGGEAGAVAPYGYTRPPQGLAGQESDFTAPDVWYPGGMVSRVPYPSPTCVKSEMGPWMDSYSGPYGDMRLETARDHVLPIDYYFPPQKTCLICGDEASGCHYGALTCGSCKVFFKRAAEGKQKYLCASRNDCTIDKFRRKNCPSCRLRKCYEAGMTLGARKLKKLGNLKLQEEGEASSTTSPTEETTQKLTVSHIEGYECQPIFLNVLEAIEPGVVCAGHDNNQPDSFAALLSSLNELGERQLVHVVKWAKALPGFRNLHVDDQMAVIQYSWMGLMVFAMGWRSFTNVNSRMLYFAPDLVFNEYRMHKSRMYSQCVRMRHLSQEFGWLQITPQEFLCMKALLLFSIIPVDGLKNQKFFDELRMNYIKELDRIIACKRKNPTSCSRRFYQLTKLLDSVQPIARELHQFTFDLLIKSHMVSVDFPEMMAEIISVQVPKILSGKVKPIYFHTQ
# Test Details: nuclear receptor cellular GAL4 reporter assay
# Assay Conditions: agonist and antagonist mode; read-out: potency in agonist and antagonist mode
Reported Endpoint: IC50

Find IC50 for CC1CCCN1C(=O)c1nc(C(=O)NCC(C)(C)O)sc1-c1ccc(C(O)(C(F)(F)F)C(F)(F)F)c(Cl)c1Cl (stereo not shown) on AR (Homo sapiens) and write it down.
> 1500 nM

---

# Test Details: 1-month GLP toxicity study in dogs
# Type: in vivo
# Assay Conditions: Beagle, in vivo, po; dog, 3 mg/kg, male; read-out: Cmax at NOAEL
Reported Endpoint: Cmax (ng/mL)
Return type: number; implicit unit ng/mL.

Supply measured Cmax of CC1CCCN1C(=O)c1nc(C(=O)NCC(C)(C)O)sc1-c1ccc(C(O)(C(F)(F)F)C(F)(F)F)c(Cl)c1Cl (stereo not shown) in your reply.
7250

---

# Study System: 5HT1B (Homo sapiens)
# Sequence (P28222 whole entry, species assumed): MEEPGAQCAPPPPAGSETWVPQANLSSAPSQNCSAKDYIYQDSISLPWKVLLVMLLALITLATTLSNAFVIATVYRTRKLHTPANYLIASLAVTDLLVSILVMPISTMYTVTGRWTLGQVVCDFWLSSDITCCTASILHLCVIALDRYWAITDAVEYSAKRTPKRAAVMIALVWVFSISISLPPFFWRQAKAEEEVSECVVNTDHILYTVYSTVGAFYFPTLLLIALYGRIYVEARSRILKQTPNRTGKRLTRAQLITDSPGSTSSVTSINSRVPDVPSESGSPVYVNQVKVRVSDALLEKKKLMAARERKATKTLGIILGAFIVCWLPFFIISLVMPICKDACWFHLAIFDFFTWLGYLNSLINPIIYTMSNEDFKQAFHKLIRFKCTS
# Test Details: GPCR panel, cAMP or calcium FLIPR assays
# Assay type: cell-based
# Assay Conditions: agonist
Reported Endpoint: EC50

Supply measured EC50 of CC1CCCN1C(=O)c1nc(C(=O)NCC(C)(C)O)sc1-c1ccc(C(O)(C(F)(F)F)C(F)(F)F)c(Cl)c1Cl (stereo not shown) [JNJ-61803534] in your reply.
> 12.5 µM

---

# Study System: MOP (Homo sapiens, UniProt P35372)
# Sequence (P35372 whole entry): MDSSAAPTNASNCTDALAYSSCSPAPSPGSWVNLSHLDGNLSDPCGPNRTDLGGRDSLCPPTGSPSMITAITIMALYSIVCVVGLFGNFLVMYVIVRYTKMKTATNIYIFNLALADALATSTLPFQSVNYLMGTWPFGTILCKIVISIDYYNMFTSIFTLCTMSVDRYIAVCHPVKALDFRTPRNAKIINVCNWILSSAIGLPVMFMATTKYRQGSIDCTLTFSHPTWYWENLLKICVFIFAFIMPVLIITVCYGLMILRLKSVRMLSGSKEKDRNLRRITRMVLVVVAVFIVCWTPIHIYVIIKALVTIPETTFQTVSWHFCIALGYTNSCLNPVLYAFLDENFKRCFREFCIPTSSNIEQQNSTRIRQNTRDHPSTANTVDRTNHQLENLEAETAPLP
# Test Details: GPCR panel, cAMP or calcium FLIPR assays
# Type: cell-based
# Assay Conditions: antagonist
Reported Endpoint: IC50

Supply measured IC50 of CC1CCCN1C(=O)c1nc(C(=O)NCC(C)(C)O)sc1-c1ccc(C(O)(C(F)(F)F)C(F)(F)F)c(Cl)c1Cl (stereo not shown) [JNJ-61803534] in your reply.
> 12.5 µM

---

# Study System: 5HT2A (Homo sapiens, UniProt P28223)
# Test Details: GPCR panel, cAMP or calcium FLIPR assays
# Assay type: cell-based
# Assay Conditions: agonist
Reported Endpoint: EC50

Supply measured EC50 of CC1CCCN1C(=O)c1nc(C(=O)NCC(C)(C)O)sc1-c1ccc(C(O)(C(F)(F)F)C(F)(F)F)c(Cl)c1Cl (stereo not shown) in your reply.
> 10 µM

---

# Test Details: phase 1 single ascending dose study, pharmacokinetics
# Type: in vivo, human
# Assay Conditions: both sexes, human, plasma, po, 10 mg, 10 mg single oral dose, fasted, n=6; mean (SD); read-out: t1/2 (converted)
# Procedure: Based on mean values, dose normalized overall exposure (AUC216h, AUC∞) also appeared to increase proportionally with dose. Informed consent was obtained from all participants. No formal sample size and power calculations were performed. Plasma samples with K2EDTA anticoagulant were treated with acetonitrile for protein extraction then processed with liquid chromatography coupled to tandem mass spectrometry. […]
Reported Endpoint: half-life
Form field: result (number plus unit)

Supply measured half-life of CC1CCCN1C(=O)c1nc(C(=O)NCC(C)(C)O)sc1-c1ccc(C(O)(C(F)(F)F)C(F)(F)F)c(Cl)c1Cl (stereo not shown) in your reply.
168 h

---

# Test Details: phase 1 single ascending dose study, pharmacokinetics
# Type: in vivo, human
# Assay Conditions: both sexes, human, plasma, po, 100 mg, 100 mg single oral dose, fed, n=9; median (range); read-out: tmax
Reported Endpoint: Tmax

Supply measured Tmax of CC1CCCN1C(=O)c1nc(C(=O)NCC(C)(C)O)sc1-c1ccc(C(O)(C(F)(F)F)C(F)(F)F)c(Cl)c1Cl (stereo not shown) in your reply.
12 h

---

# Study System: UniProtKB P28335
# Sequence (P28335 33-458): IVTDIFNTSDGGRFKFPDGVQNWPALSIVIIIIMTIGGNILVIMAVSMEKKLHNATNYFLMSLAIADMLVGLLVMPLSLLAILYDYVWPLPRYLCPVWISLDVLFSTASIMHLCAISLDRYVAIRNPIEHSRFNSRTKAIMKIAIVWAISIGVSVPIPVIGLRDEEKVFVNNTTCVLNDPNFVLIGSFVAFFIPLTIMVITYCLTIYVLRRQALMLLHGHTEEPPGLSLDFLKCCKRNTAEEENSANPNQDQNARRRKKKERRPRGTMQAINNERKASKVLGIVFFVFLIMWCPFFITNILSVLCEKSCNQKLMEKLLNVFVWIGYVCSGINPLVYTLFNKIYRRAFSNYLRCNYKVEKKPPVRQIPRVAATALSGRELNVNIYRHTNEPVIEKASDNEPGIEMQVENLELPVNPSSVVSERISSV
# Test Details: GPCR panel, cAMP or calcium FLIPR assays
# Assay type: cell-based
# Assay Conditions: agonist
Reported Endpoint: EC50

Supply measured EC50 of CC1CCCN1C(=O)c1nc(C(=O)NCC(C)(C)O)sc1-c1ccc(C(O)(C(F)(F)F)C(F)(F)F)c(Cl)c1Cl (stereo not shown) in your reply.
> 10 µM

---

# Test Details: 1-month GLP toxicity study in dogs
# Assay type: in vivo
# Assay Conditions: Beagle, in vivo, po; dog, 3 mg/kg, male; read-out: AUC0-24 h at NOAEL
Reported Endpoint: AUC(0-t) (µg·h/mL)
Return type: number; implicit unit µg·h/mL.

Supply measured AUC(0-t) of CC1CCCN1C(=O)c1nc(C(=O)NCC(C)(C)O)sc1-c1ccc(C(O)(C(F)(F)F)C(F)(F)F)c(Cl)c1Cl (stereo not shown) in your reply.
118

---

# Study System: TRα (Homo sapiens)
# Sequence (P10827 163-410 isoform P10827-2 limits assumed): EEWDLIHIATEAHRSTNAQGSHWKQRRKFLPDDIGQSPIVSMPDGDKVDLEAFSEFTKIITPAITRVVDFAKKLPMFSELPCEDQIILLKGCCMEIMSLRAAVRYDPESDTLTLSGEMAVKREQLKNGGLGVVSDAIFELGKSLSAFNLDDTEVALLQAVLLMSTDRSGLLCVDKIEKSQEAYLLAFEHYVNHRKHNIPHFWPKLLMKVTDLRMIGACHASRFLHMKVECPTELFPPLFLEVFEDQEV
# Test Details: nuclear receptor cellular GAL4 reporter assay
# Assay Conditions: agonist and antagonist mode; read-out: potency in agonist and antagonist mode
Reported Endpoint: IC50

Supply measured IC50 of CC1CCCN1C(=O)c1nc(C(=O)NCC(C)(C)O)sc1-c1ccc(C(O)(C(F)(F)F)C(F)(F)F)c(Cl)c1Cl (stereo not shown) [JNJ-61803534] in your reply.
> 1500 nM

---

# Study System: ETA (Homo sapiens, UniProt P25101)
# Test Details: GPCR panel, cAMP or calcium FLIPR assays
# Type: cell-based
# Assay Conditions: agonist
Reported Endpoint: EC50

Supply measured EC50 of CC1CCCN1C(=O)c1nc(C(=O)NCC(C)(C)O)sc1-c1ccc(C(O)(C(F)(F)F)C(F)(F)F)c(Cl)c1Cl (stereo not shown) in your reply.
> 10 µM

---

# Study System: hGABAAα1β2γ2-gated Cl− channel (Homo sapiens, UniProt P14867+P18507+P47870)
# Sequence (P14867 28-456): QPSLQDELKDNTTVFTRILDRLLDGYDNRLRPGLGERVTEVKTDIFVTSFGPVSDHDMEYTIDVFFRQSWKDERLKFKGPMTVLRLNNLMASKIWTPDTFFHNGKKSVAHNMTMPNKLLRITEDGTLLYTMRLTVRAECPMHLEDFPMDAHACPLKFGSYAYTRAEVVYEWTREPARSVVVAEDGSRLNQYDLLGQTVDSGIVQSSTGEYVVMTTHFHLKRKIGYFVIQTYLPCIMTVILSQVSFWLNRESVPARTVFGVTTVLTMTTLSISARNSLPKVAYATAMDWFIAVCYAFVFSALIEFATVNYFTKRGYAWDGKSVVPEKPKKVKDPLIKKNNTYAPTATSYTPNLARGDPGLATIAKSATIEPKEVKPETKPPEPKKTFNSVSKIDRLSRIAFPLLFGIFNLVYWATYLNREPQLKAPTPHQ
# Sequence (P47870 25-512 limits assumed): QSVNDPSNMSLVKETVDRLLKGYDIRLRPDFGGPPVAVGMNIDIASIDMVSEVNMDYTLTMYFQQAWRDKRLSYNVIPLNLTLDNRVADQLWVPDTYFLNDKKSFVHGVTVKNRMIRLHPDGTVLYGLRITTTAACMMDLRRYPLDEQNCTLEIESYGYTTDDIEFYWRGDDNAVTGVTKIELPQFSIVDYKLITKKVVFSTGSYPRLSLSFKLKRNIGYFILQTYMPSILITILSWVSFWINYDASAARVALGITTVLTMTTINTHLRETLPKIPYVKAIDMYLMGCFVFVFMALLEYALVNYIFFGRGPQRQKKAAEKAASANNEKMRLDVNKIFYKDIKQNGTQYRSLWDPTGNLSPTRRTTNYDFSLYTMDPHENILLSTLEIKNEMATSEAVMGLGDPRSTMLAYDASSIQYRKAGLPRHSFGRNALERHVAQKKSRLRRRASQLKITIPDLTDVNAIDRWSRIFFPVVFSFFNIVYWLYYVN
# Sequence (P18507 40-475): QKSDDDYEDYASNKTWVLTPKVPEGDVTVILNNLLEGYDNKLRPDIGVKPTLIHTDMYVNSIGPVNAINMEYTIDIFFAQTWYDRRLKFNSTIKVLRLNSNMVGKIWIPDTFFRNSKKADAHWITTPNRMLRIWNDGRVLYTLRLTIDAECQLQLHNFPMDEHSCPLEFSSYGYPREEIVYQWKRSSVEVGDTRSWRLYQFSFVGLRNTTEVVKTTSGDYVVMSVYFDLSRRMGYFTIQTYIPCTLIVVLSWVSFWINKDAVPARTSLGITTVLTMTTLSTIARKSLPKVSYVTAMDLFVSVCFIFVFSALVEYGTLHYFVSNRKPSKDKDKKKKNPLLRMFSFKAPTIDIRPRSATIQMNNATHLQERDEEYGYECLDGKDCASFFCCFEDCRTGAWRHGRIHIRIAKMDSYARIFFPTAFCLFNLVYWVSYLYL
# Test Details: follow-up functional study
# Assay Conditions: read-out: IC50 in follow-up functional studies
pIC50: −log10 of the molar value.
Reported Endpoint: pIC50

Find pIC50 for CC1CCCN1C(=O)c1nc(C(=O)NCC(C)(C)O)sc1-c1ccc(C(O)(C(F)(F)F)C(F)(F)F)c(Cl)c1Cl (stereo not shown) [JNJ-61803534] on hGABAAα1β2γ2-gated Cl− channel (Homo sapiens, UniProt P14867+P18507+P47870) and write it down.
< 4.52

---

# Study System: RARα (Homo sapiens, UniProt P10276)
# Test Details: nuclear receptor cellular GAL4 reporter assay
# Assay Conditions: agonist and antagonist mode; read-out: potency in agonist and antagonist mode
pIC50: −log10 of the molar value.
Reported Endpoint: pIC50

Supply measured pIC50 of CC1CCCN1C(=O)c1nc(C(=O)NCC(C)(C)O)sc1-c1ccc(C(O)(C(F)(F)F)C(F)(F)F)c(Cl)c1Cl (stereo not shown) in your reply.
< 5.82

---

# Study System: 5HT7 (Homo sapiens)
# Sequence (P34969 whole entry): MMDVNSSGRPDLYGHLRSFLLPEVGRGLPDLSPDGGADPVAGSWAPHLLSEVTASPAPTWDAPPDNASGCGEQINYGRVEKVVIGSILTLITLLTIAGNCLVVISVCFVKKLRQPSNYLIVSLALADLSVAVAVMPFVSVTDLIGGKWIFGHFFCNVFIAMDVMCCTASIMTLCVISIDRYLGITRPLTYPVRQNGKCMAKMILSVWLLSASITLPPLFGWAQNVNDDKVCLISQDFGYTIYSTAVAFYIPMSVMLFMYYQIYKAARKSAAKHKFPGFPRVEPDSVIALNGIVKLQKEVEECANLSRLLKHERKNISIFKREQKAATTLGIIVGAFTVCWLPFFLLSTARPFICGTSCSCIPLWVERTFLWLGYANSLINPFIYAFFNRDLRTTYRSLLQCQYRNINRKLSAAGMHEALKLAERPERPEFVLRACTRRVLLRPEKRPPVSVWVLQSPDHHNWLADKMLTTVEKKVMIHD
# Test Details: GPCR panel, cAMP or calcium FLIPR assays
# Format: cell-based
# Assay Conditions: antagonist
Reported Endpoint: IC50

Find IC50 for CC1CCCN1C(=O)c1nc(C(=O)NCC(C)(C)O)sc1-c1ccc(C(O)(C(F)(F)F)C(F)(F)F)c(Cl)c1Cl (stereo not shown) on 5HT7 (Homo sapiens) and write it down.
> 12.5 µM

---

# Study System: ADRA2C (Homo sapiens, UniProt P18825)
# Sequence (P18825 whole entry, species assumed): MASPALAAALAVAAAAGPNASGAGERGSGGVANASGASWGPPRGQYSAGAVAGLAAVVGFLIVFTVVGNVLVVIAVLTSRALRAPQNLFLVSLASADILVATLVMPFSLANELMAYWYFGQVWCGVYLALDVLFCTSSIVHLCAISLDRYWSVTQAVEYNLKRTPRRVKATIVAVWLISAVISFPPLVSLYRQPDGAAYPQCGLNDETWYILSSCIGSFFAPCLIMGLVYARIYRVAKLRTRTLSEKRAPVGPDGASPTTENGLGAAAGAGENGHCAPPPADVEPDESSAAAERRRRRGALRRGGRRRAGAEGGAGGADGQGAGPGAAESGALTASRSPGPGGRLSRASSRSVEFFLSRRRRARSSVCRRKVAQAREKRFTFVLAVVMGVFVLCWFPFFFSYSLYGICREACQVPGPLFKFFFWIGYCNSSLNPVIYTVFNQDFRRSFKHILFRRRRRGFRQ
# Test Details: GPCR panel, cAMP or calcium FLIPR assays
# Assay type: cell-based
# Assay Conditions: agonist
Reported Endpoint: EC50

Find EC50 for CC1CCCN1C(=O)c1nc(C(=O)NCC(C)(C)O)sc1-c1ccc(C(O)(C(F)(F)F)C(F)(F)F)c(Cl)c1Cl (stereo not shown) [JNJ-61803534] on ADRA2C (Homo sapiens, UniProt P18825) and write it down.
> 12.5 µM

---

# Study System: ERRγ (Homo sapiens)
# Sequence (P62508 1-458): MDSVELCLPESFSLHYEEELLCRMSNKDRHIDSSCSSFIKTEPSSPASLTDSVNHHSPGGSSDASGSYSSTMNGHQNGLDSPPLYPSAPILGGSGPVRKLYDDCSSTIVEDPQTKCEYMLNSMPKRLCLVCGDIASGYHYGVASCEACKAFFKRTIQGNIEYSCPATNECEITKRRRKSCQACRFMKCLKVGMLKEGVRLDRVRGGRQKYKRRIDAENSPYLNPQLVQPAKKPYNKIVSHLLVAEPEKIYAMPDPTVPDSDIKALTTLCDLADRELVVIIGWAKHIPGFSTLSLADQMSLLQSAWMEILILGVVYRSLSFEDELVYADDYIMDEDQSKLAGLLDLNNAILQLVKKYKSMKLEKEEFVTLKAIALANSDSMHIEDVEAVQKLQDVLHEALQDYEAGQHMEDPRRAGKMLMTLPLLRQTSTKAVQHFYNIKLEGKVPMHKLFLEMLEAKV
Reported Endpoint: IC50

Find IC50 for CC1CCCN1C(=O)c1nc(C(=O)NCC(C)(C)O)sc1-c1ccc(C(O)(C(F)(F)F)C(F)(F)F)c(Cl)c1Cl (stereo not shown) on ERRγ (Homo sapiens) and write it down.
> 10 µM
